molecular target: HRgpA-6H (Porphyromonas gingivalis) (UniProt P28784); assay: ELISA on coated HRgpA-6H
Ratio OD(Variant)/OD(WT) for assorted binders

binder="KB001 mouse Fab FASEBA VH I31N (Fab, V domains shown) VH: EVQLKQSGPGLVAPSQSLSITCTVSGFSLSNYSVHWVRQPPGKGLEWLGMIWGGGSSDYNSALKSRLSISKDNSKSQVFLKMNSLQTDDTAMYYCARNGNFYAMDYWGQGTSVTVSS VL: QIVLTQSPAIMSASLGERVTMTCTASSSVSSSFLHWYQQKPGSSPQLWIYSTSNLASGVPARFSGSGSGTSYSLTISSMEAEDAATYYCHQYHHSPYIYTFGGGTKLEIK" experimental_endpoint="Ratio OD(Variant)/OD(WT)" result=0.85

input: # query: Ratio OD(Variant)/OD(WT) of entry KB001 mouse Fab FASEBA VH Y59K (Fab, V domains shown) VH: EVQLKQSGPGLVAPSQSLSITCTVSGFSLSIYSVHWVRQPPGKGLEWLGMIWGGGSSDKNSALKSRLSISKDNSKSQVFLKMNSLQTDDTAMYYCARNGNFYAMDYWGQGTSVTVSS VL: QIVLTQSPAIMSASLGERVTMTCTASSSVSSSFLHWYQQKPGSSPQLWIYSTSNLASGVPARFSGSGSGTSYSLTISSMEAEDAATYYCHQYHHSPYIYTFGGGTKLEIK
output: 0.819
